conditions: pH 2.7
Marks after values point to notes of the source that are not given here.
Parameter LogP: see the listing below.
reported.endpoint: LogP

- compound: "Cc1cccc(OC(C)C(=O)Nc2cccc(CO/N=C(/c3ccccc3)c3noc(=O)n3C)n2)c1 (centres unmarked)"
  reported.endpoint: "LogP"
  measured.value: "4.35 [a]"
- compound: "Cn1c(/C(=N\\OCc2csc(NC(=O)C(C)(C)C)n2)c2ccccc2)noc1=O"
  reported.endpoint: "LogP"
  measured.value: "3.42 [a]"
- compound: "CCCCCOC(=O)Nc1nc(CO/N=C(/c2cccc(F)c2)c2noc(=O)n2C)cs1"
  reported.endpoint: "LogP"
  measured.value: "4.19 [a]"
- compound: "COc1cccc(CCOC(=O)Nc2cccc(CO/N=C(/c3ccccc3)c3noc(=O)n3C)n2)c1"
  reported.endpoint: "LogP"
  measured.value: "4.11 [a]"
- compound: "CC(OCc1ccccc1)C(=O)Nc1nc(CO/N=C(/c2ccccc2)c2noc(=O)n2C)cs1 (centres unmarked)"
  reported.endpoint: "LogP"
  measured.value: "3.85 [a]"
- compound: "Cn1c(/C(=N\\OCc2cccc(NC(=O)OCc3ccc(F)cc3)n2)c2ccccc2)noc1=O"
  reported.endpoint: "LogP"
  measured.value: "3.99 [a]"
- compound: "Cc1ccc(OC(C)C(=O)Nc2cccc(CO/N=C(/c3ccccc3)c3noc(=O)n3C)n2)cc1 (centres unmarked)"
  reported.endpoint: "LogP"
  measured.value: "4.35 [a]"
- compound: "Cn1c(/C(=N\\OCc2cccc(NC(=O)OCCBr)n2)c2ccccc2)noc1=O"
  reported.endpoint: "LogP"
  measured.value: "3.42 [a]"
- compound: "C#CCCOC(=O)Nc1cccc(CO/N=C(/c2cccc(C)c2)c2noc(=O)n2C)n1"
  reported.endpoint: "LogP"
  measured.value: "3.59 [a]"
- compound: "CCOCCOC(=O)Nc1cccc(CO/N=C(/c2ccccc2)c2noc(=O)n2C)n1"
  reported.endpoint: "LogP"
  measured.value: "3.17 [a]"
- compound: "Cn1c(C(=NOCc2cccc(NC(=O)OC(C)(C)C)n2)c2cccc(F)c2F)noc1=O [Example 249]"
  reported.endpoint: "LogP"
  measured.value: "3.94 [a]"
- compound: "C#CC(C)OC(=O)Nc1cccc(CO/N=C(/c2ccccc2)c2noc(=O)n2C)n1 (centres unmarked)"
  reported.endpoint: "LogP"
  measured.value: "3.41 [a]"
- compound: "CCC(Oc1ccccc1)C(=O)Nc1nc(CO/N=C(/c2ccccc2)c2noc(=O)n2C)cs1 (centres unmarked)"
  reported.endpoint: "LogP"
  measured.value: "3.99 [a]"
- compound: "CCCCCCNc1cccc(CO/N=C(/c2ccccc2)c2noc(=O)n2C)n1"
  reported.endpoint: "LogP"
  measured.value: "2.64 [a]"
- compound: "Cc1ccccc1OCC(=O)Nc1nc(CO/N=C(/c2ccccc2)c2noc(=O)n2C)cs1"
  reported.endpoint: "LogP"
  measured.value: "3.85 [a]"
- compound: "Cc1ccc(OCC(=O)Nc2cccc(CO/N=C(/c3ccccc3)c3noc(=O)n3C)n2)cc1"
  reported.endpoint: "LogP"
  measured.value: "4.07 [a]"
- compound: "Cn1c(/C(=N\\OCc2cccc(NC(=O)OCCCC(F)(F)F)n2)c2ccccc2)noc1=O"
  reported.endpoint: "LogP"
  measured.value: "3.85 [a]"
- compound: "C#CCC(C)OC(=O)Nc1cccc(CO/N=C(/c2ccccc2)c2noc(=O)n2CC)n1 (centres unmarked)"
  reported.endpoint: "LogP"
  measured.value: "3.81 [a]"
- compound: "CCCOCCOC(=O)Nc1cccc(CO/N=C(/c2ccccc2)c2noc(=O)n2C)n1"
  reported.endpoint: "LogP"
  measured.value: "3.57 [a]"
- compound: "Cn1c(/C(=N\\OCc2cccc(NC(=O)OCC3CCCCO3)n2)c2ccccc2)noc1=O (centres unmarked)"
  reported.endpoint: "LogP"
  measured.value: "3.5 [a]"
- compound: "CC(Oc1cccc(Cl)c1)C(=O)Nc1nc(CO/N=C(/c2ccccc2)c2noc(=O)n2C)cs1 (centres unmarked)"
  reported.endpoint: "LogP"
  measured.value: "4.1 [a]"
- compound: "Cc1ccccc1OC(C)C(=O)Nc1cccc(CO/N=C(/c2ccccc2)c2noc(=O)n2C)n1 (centres unmarked)"
  reported.endpoint: "LogP"
  measured.value: "4.46 [a]"
- compound: "Cn1c(/C(=N\\OCc2cccc(NC(=O)c3cccc(I)c3)n2)c2ccccc2)noc1=O"
  reported.endpoint: "LogP"
  measured.value: "4.31 [a]"
- compound: "COc1cccc(/C(=N/OCc2cccc(N)n2)c2noc(=O)n2C)c1"
  reported.endpoint: "LogP"
  measured.value: "1.32 [a]"
- compound: "CCCC(C)C(=O)Nc1cccc(CON=C(c2ccccc2)c2noc(=O)n2C)n1 (centres unmarked)"
  reported.endpoint: "LogP"
  measured.value: "3.8 [a]"
- compound: "COc1cccc(/C(=N/OCc2cccc(N(C(=O)OC(C)(C)C)C(=O)OC(C)(C)C)n2)c2noc(=O)n2C)c1"
  reported.endpoint: "LogP"
  measured.value: "4.44 [a]"
- compound: "Cn1c(/C(=N\\OCc2cccc(NC(=O)c3cccc(Oc4ccccc4)c3)n2)c2ccccc2)noc1=O"
  reported.endpoint: "LogP"
  measured.value: "4.61 [a]"
- compound: "CCC(CC)COC(=O)Nc1cccc(CO/N=C(/c2ccccc2)c2noc(=O)n2C)n1"
  reported.endpoint: "LogP"
  measured.value: "4.78 [a]"
- compound: "Cn1c(/C(=N\\OCc2cccc(NC(=O)CCC3CCCC3)n2)c2ccccc2)noc1=O"
  reported.endpoint: "LogP"
  measured.value: "4.36 [a]"
- compound: "C=CCC(C)OC(=O)Nc1cccc(CO/N=C(/c2ccccc2)c2noc(=O)n2C)n1 (racemic)"
  reported.endpoint: "LogP"
  measured.value: "4.01 [a]"
- compound: "CCC#CCOC(=O)Nc1cccc(CON=C(c2ccccc2)c2noc(=O)n2C)n1"
  reported.endpoint: "LogP"
  measured.value: "3.78 [a]"
- compound: "C=COC(=O)Nc1cccc(CO/N=C(/c2ccccc2)c2noc(=O)n2C)n1"
  reported.endpoint: "LogP"
  measured.value: "3.33 [a]"

---

details: pH 2.7
Marks after values point to notes of the source that are not given here.
Parameter LogP: see the listing below.

- compound: "C#CCCOC(=O)Nc1cccc(CO/N=C(/c2ccccc2)c2noc(=O)n2CC)n1"
  LogP: "3.51 [a]"
- compound: "Cn1c(/C(=N\\OCc2cccc(NC(=O)COc3ccc(Br)cc3)n2)c2ccccc2)noc1=O"
  LogP: "4.2 [a]"
- compound: "COc1ccc(C(=NOCc2cccc(NC(=O)OC(C)(C)C)n2)C(N)=NO)cc1 (mixture of isomers)"
  LogP: "2.51 [a]"
- compound: "Cn1c(/C(=N\\OCc2cccc(NC(=O)OCCc3ccccn3)n2)c2ccccc2)noc1=O"
  LogP: "2.07 [a]"
- compound: "Cc1cccc(OC(C)C(=O)Nc2nc(CO/N=C(/c3ccccc3)c3noc(=O)n3C)cs2)c1 (stereo not shown)"
  LogP: "3.99 [a]"
- compound: "Cn1c(/C(=N\\OCc2csc(NC(=O)COc3ccc(Cl)cc3Cl)n2)c2ccccc2)noc1=O"
  LogP: "4.23 [a]"
- compound: "Cn1c(/C(=N\\OCc2cccc(NC(=O)CC(F)(F)F)n2)c2ccccc2)noc1=O"
  LogP: "3.19 [a]"
- compound: "CC(C)(C)OC(=O)Nc1cccc(CON=C(c2noc(=O)[nH]2)c2cccc(F)c2F)n1"
  LogP: "3.76 [a]"
- compound: "Cc1cccc(C(=NOCc2cccc(NC(=O)OC3CCCCC3)n2)c2noc(=O)n2C)c1"
  LogP: "4.82 [a]"
- compound: "CCCCCOC(=O)Nc1nc(CO/N=C(/c2ccccc2)c2noc(=O)n2C)cs1"
  LogP: "4.11 [a]"
- compound: "Cc1ccc(CCOC(=O)Nc2cccc(CO/N=C(/c3ccccc3)c3noc(=O)n3C)n2)cc1"
  LogP: "4.53 [a]"
- compound: "CCC=CCCCOC(=O)Nc1cccc(CON=C(c2ccccc2)c2noc(=O)n2C)n1"
  LogP: "4.78 [a]"
- compound: "Cn1c(C(=NOCc2csc(NC(=O)c3ccc(Cl)cc3Cl)n2)c2ccccc2)noc1=O"
  LogP: "3.94 [a]"

---

conditions: pH 2.7
Marks after values point to notes of the source that are not given here.

- compound: "COc1cccc(C(=NOCc2cccc(N)n2)c2noc(=O)[nH]2)c1 (mixture of isomers)"
  LogP: "1.29 [a]"
- compound: "C#CCCCCOC(=O)Nc1cccc(CON=C(c2ccccc2)c2noc(=O)n2C)n1"
  LogP: "3.78 [a]"
- compound: "Cn1c(/C(=N\\OCc2cccc(NC(=O)Cc3ccccc3)n2)c2ccccc2)noc1=O"
  LogP: "3.53 [a]"
- compound: "Cn1c(/C(=N\\OCc2cccc(NC(=O)OCC3COCO3)n2)c2ccccc2)noc1=O (centres unmarked)"
  LogP: "2.73 [a]"
- compound: "Cn1c(/C(=N\\OCc2cccc(NC(=O)OCCCl)n2)c2ccccc2)noc1=O"
  LogP: "3.29 [a]"
- compound: "CCCCC(=O)Nc1cccc(CO/N=C(/c2ccccc2)c2noc(=O)n2CC)n1"
  LogP: "3.76 [a]"
- compound: "CC(C)C=CCCCCC(=O)Nc1cccc(CON=C(c2ccccc2)c2noc(=O)n2C)n1"
  LogP: "5.06 [a]"
- compound: "CCCCSC(=O)Nc1cccc(CO/N=C(/c2ccccc2)c2noc(=O)n2C)n1"
  LogP: "4.41 [a]"
- compound: "Cn1c(/C(=N\\OCc2cccc(NC(=O)CC(C)(C)C)n2)c2ccccc2)noc1=O"
  LogP: "3.78 [a]"
- compound: "Cn1c(/C(=N\\OCc2cccc(NC(=O)COc3ccc(Cl)cc3)n2)c2ccccc2)noc1=O"
  LogP: "4.1 [a]"
- compound: "Cc1cccc(C)c1OC(=O)Nc1cccc(CON=C(c2ccccc2)c2noc(=O)n2C)n1"
  LogP: "4.2 [a]"
- compound: "CC(C)=CCC(=O)Nc1cccc(CO/N=C(/c2ccccc2)c2noc(=O)n2C)n1"
  LogP: "3.59 [a]"
- compound: "CC(COC(=O)Nc1cccc(CO/N=C(/c2ccccc2)c2noc(=O)n2C)n1)c1ccccc1 (centres unmarked)"
  LogP: "4.46 [a]"
- compound: "Cn1c(/C(=N\\OCc2csc(NC(=O)Cc3ccccc3)n2)c2ccccc2Cl)noc1=O"
  LogP: "3.51 [a]"
- compound: "Cn1c(/C(=N\\OCc2csc(NC(=O)c3cccc(F)c3)n2)c2ccccc2)noc1=O"
  LogP: "3.6 [a]"
- compound: "Cn1c(/C(=N\\OCc2cccc(NC(=O)C3CCCC3)n2)c2ccccc2)noc1=O"
  LogP: "3.62 [a]"
- compound: "CCCCCC(=O)Nc1cccc(CO/N=C(/c2ccccc2F)c2noc(=O)n2C)n1"
  LogP: "3.81 [a]"
